Origin of the recorded values: ChEMBL document CHEMBL3137667

Hepatotoxicity (moderate) values, listed per item
# RUN_PARAMETERS: human, serum;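 also: human clinical chemistry: moderate when serum ALT or AST reaches 6× upper normal limit or alkaline phosphatase 1.7×, value counts indexed literature references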
Keep the answer to the number alone.

Sample answers from the record:
molecule=COC(=O)[C@H]1[C@H]2C[C@@H]3c4[nH]c5cc(OC)ccc5c4CCN3C[C@H]2C[C@@H](OC(=O)c2cc(OC)c(OC)c(OC)c2)[C@@H]1OC reported=0
molecule="CC(OC(=O)OC1CCCCC1)OC(=O)C1=C(CSc2nnnn2CCN(C)C)CS[C@@H]2[C@H](NC(=O)Cc3csc(N)n3)C(=O)N12 (stereo partly specified)" reported=25
molecule=CC[C@H]1OC(=O)[C@H](C)[C@@H](O[C@H]2C[C@@](C)(OC)[C@@H](O)[C@H](C)O2)[C@H](C)[C@@H](O[C@@H]2O[C@H](C)C[C@H](N(C)C)[C@H]2O)[C@](C)(O)C[C@@H](C)[C@@H]2N[C@@H](COCCOC)O[C@H]([C@H]2C)[C@]1(C)O reported=3
molecule="O=C(Cn1c(=O)sc2ccc(Cl)cc21)N1CCN(CCO)CC1 [TIARAMIDE]" reported=0
molecule="CC(C)NCC1CCc2cc(CO)c([N+](=O)[O-])cc2N1 (stereo unspecified)" reported=3

Input: I would be grateful if you could share the reported Hepatotoxicity (moderate) for CCc1nn(CCCN2CCN(c3cccc(Cl)c3)CC2)c(=O)n1CCOc1ccccc1 .
Output: 4

Input: I would be grateful if you could share the reported Hepatotoxicity (moderate) for CN(C)[C@@H]1C(O)=C(C(N)=O)C(=O)[C@@]2(O)C(O)=C3C(=O)c4c(O)ccc(Cl)c4[C@@](C)(O)[C@H]3C[C@@H]12 .
Output: 0

Input: I would be grateful if you could share the reported Hepatotoxicity (moderate) for CN(C)C(=N)N=C(N)N .
Output: 1

Input: I would be grateful if you could share the reported Hepatotoxicity (moderate) for Nc1ccc(S(=O)(=O)Nc2ncccn2)cc1 .
Output: 2

Input: I would be grateful if you could share the reported Hepatotoxicity (moderate) for O=C(CCBr)N1CCN(C(=O)CCBr)CC1 .
Output: 0
